IC50 by entry:
biological target: UniProt:P0A017
Sequence (P0A017 whole entry): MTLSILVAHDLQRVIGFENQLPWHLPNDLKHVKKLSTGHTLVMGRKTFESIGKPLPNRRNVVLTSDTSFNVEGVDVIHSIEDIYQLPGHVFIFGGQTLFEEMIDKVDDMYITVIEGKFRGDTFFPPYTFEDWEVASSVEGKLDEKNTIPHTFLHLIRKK
Provide the reading as a plain figure in nM.

Below, each entry is followed by its recorded IC50 result.
| smiles-text | quantity-unit | IC50 |
| --- | --- | --- |
| CCCCCOc1cc(C(C)C)c(Oc2cnc(N)nc2N)cc1I | nM | 8.36 |
| COc1ccc(Oc2cnc(N)nc2N)cc1-c1ccc(C(F)(F)F)cc1 | nM | 8.29 |
| CCCCOc1cc(C(C)C)c(Oc2cnc(N)nc2N)cc1I | nM | 36.7 |
| COc1cc(C(C)C)c(Oc2cnc(N)nc2N)cc1-c1ccc(F)cc1 | nM | 69.5 |
| COc1cc(C(C)C)c(Oc2cnc(N)nc2N)cc1-c1ccc(Cl)cc1 | nM | 66.6 |

The reported value for `COc1cc(C(C)C)c(Oc2cnc(N)nc2N)cc1C1CC1` in terms of IC50 is 27.8

The reported value for `COc1cc(C(C)C)c(Oc2cnc(N)nc2N)cc1-c1ccc(Cl)c(C(F)(F)F)c1` in terms of IC50 is 142

The reported value for `COc1cc(C(C)C)c(Oc2cnc(N)nc2N)cc1-c1ccc(C(C)C)cc1` in terms of IC50 is 1.81

The reported value for `COc1cc(C(C)C)c(Oc2cnc(N)nc2N)cc1-c1ccc2ccccc2c1` in terms of IC50 is 148

The reported value for `COc1cc(C(C)C)c(Oc2cnc(N)nc2N)cc1I` in terms of IC50 is 32.9

The reported value for `COc1cc(C(C)C)c(Oc2cnc(N)nc2N)cc1-c1ccc(C(C)(C)C)cc1` in terms of IC50 is 37.9

The reported value for `CCCOc1cc(C(C)C)c(Oc2cnc(N)nc2N)cc1I` in terms of IC50 is 45
